Every entry's value here was drawn from patent US9526785B2.

Assay: Tigecycline plasma PK and % F after intraduodenal (ID) injection in anesthetized rats
Type: in vivo, Sprague-Dawley Rats
Settings: female, Sprague-Dawley, rat, plasma, other: intraduodenal bolus injection, 9 mg/kg, ID, PBS, 9.0 mg/kg (RA853), animal RA853-4 only; 60 min
Endpoint Name: concentration at 60 min (ng/mL)
One number for each entry, in ng/mL.

Looking for the measured concentration at 60 min of CN(C)c1cc(NC(=O)CNC(C)(C)C)c(O)c2c1C[C@H]1C[C@H]3[C@H](N(C)C)C(O)=C(C(N)=O)C(=O)[C@@]3(O)C(O)=C1C2=O , can you help?
440

----------
Assay: Tigecycline plasma PK and % F after PO enteric-coated capsule in dogs
Assay type: in vivo, Beagle dogs
Conditions: female, beagle, dog, plasma, po, 15 mg, Tigecycline Plasma Concentration, 0 min; PO 15 mg enteric-coated capsule with 500 mg CA and 100 mg LLC, SC424; individual dogs
Endpoint Name: concentration at 0 min (ng/mL)
Give bare numbers, in ng/mL.

Value lookup for concentration at 0 min; key = CN(C)c1cc(NC(=O)CNC(C)(C)C)c(O)c2c1C[C@H]1C[C@H]3[C@H](N(C)C)C(O)=C(C(N)=O)C(=O)[C@@]3(O)C(O)=C1C2=O
0

----------
Assay: Tigecycline plasma PK and % F after PO enteric-coated capsule in dogs
Assay type: in vivo, Beagle dogs
Settings: female, beagle, dog, plasma, po, all studied oral formulations; read-out: Tmax, mean (converted)
Endpoint Name: Tmax

I have this molecule here, CN(C)c1cc(NC(=O)CNC(C)(C)C)c(O)c2c1C[C@H]1C[C@H]3[C@H](N(C)C)C(O)=C(C(N)=O)C(=O)[C@@]3(O)C(O)=C1C2=O [Tigecycline] , and I need its recorded Tmax.
~1.67 h

----------
Experiment: Tigecycline plasma PK after IV bolus in dogs
Format: in vivo, Beagle dogs
Settings: female, beagle, dog, plasma, intravenous, 5 mg, Tigecycline Plasma Concentration, 60 min; 5 mg IV in PBS ([…]), SC431; mean
Endpoint Name: concentration at 60 min (ng/mL)
Answers are plain numbers, in ng/mL.

Could you tell me which concentration at 60 min is on file for CN(C)c1cc(NC(=O)CNC(C)(C)C)c(O)c2c1C[C@H]1C[C@H]3[C@H](N(C)C)C(O)=C(C(N)=O)C(=O)[C@@]3(O)C(O)=C1C2=O ?
49.1

----------
Assay: Tigecycline plasma PK after IV bolus in anesthetized rats
Format: in vivo
Conditions: female, Sprague-Dawley, rat, IV bolus 0.64 mg/kg, PBS (RA851), 30 min
Endpoint Name: concentration at 30 min
// return the numeric value with its unit appended

Report concentration at 30 min for CN(C)c1cc(NC(=O)CNC(C)(C)C)c(O)c2c1C[C@H]1C[C@H]3[C@H](N(C)C)C(O)=C(C(N)=O)C(=O)[C@@]3(O)C(O)=C1C2=O please.
376 ng/mL

----------
Test: Tigecycline plasma PK and % F after PO enteric-coated capsule in dogs
Format: in vivo, Beagle dogs
Conditions: female, beagle, dog, plasma, po, 30 mg, Tigecycline Plasma Concentration, Time (min) 5.5; PO 30 mg enteric-coated capsule with 500 mg CA and 100 mg LLC, SC430; mean
Endpoint Name: concentration at […] (ng/mL)
Numbers only, in ng/mL.

Bench note: what concentration at […] did CN(C)c1cc(NC(=O)CNC(C)(C)C)c(O)c2c1C[C@H]1C[C@H]3[C@H](N(C)C)C(O)=C(C(N)=O)C(=O)[C@@]3(O)C(O)=C1C2=O show?
37.9
